# System: SF-295 CNS
# method.summary: NCI-60 one-dose screen, 48 h
# condition.set: 10 µM unless noted
The panel holds about 83,000 compounds, 20% with a hit somewhere; the sample as a whole holds those more often. Calls of active or inactive are those of the source. Rule for the calls: active = growth percent below 10; inactive = the rest.
Outcomes: Y = active, N = inactive

compound	cat
CC(C)=CC/C=C(/C)[C@H]1CC[C@]2(C)[C@@H]1CC[C@@H]1[C@@]3(C)CC/C(=N/O)C(C)(C)[C@@H]3CC[C@]12C	N
C[C@H]1[C@H](C)CC[C@]2(C(=O)O)CC[C@]3(C)C(=CC[C@@H]4[C@@]5(C)C/C(=C/c6ccco6)C(=O)C(C)(C)[C@@H]5CC[C@]43C)[C@H]12	Y
CCCCCCSc1ncnc2nc[nH]c12	N
Nc1nc(Nc2ccccc2)c2ncn(Cc3ccc4c(c3)OCO4)c2n1	N
CCN(CC)CCCC(C)Nc1ccnc2cc(Cl)c(SCc3ccccc3)cc12 (stereo unspecified)	Y
COc1ccccc1S(=O)Nc1ccccc1 (stereo unspecified)	N
c1ccc(-c2n[nH]c(-c3ccccn3)n2)nc1	N
COc1ccc(C2NC(=O)C(C#N)c3c2sc2c(F)cccc32)cc1 (stereo unspecified)	N
CCN(CC)CCCOc1ccc2c(c1)O/C(=C\c1cccc(OC)c1)C2=O	N
O=C(CSc1nc2ccc([N+](=O)[O-])cc2[nH]1)Nc1cccc(Cl)c1	N
O=S(=O)(/N=c1/n(-c2ccccc2)nc2n1CCN2C1=NCCN1)c1ccc(-c2ccccc2)cc1	N
COc1ccc(C(=O)CSc2nccc(Nc3ccc(C(=O)O)cc3)n2)cc1	N
CC(C)(C)c1cc(C(=O)Nc2cc3ccccc3cc2C(=O)NCCN)cc(C(C)(C)C)c1	Y
Cn1cc(-c2nnc(-c3cn(C)c4ncc(Br)cc34)s2)c2cc(Br)ccc21	N
O=C1CC(c2ccccc2)Cc2nc3ccc(Cl)cc3cc21 (stereo unspecified)	Y
CC1(C)C(=O)/C(=C\c2cccnc2)C[C@]2(C)[C@H]3CC[C@@H]4[C@H]5[C@H](C(=O)/C=C/c6cccnc6)CC[C@]5(C(=O)O)CC[C@@]4(C)[C@]3(C)CC[C@@H]12	Y
O=C(Nc1cccc2ccccc12)c1cc2ccccc2cc1O	Y
COC(=O)[C@]12CCC(C)(C)C[C@H]1C1=CC[C@@H]3[C@@]4(C)C/C(=C/c5cccnc5)C(=O)C(C)(C)[C@@H]4CC[C@@]3(C)[C@]1(C)CC2	Y
O=[N+]([O-])c1cccc(N=NNc2cccc([N+](=O)[O-])c2)c1	N
CCCCCC1CCCCN1C(=O)OCCCC (stereo unspecified)	N
COc1ccc(NCc2cn(-c3ccc(C(=O)O)cc3)nc2-c2ccc(C(=O)O)cc2)cc1C(F)(F)F	N
O=C1COCCN1c1ccc(Nc2nc(Cl)nc(N3CCOCC3)n2)cc1	N
O=C(NCCCNC(=O)OCc1ccc2c(Br)cc(Br)c(O)c2n1)OCc1ccc2c(Br)cc(Br)c(O)c2n1	N
CSc1nc2sc3cc(Cl)c(Cl)cc3n2c(=N)c1C#N	N
Nc1cc(C(=O)O)[nH]c(=S)n1	N
Cc1cccc(C[C@H](NC(=O)Nc2ccc(Cl)cc2F)C(=O)N[C@@H]2C(=O)N3C[C@H](O)C[C@H]3C(=O)N3CCCC[C@H]3C(=O)N[C@@H](C)C(=O)N3C[C@H](C)C[C@H]3C(=O)O[C@H]2C)c1	Y
O=C1Nc2ccccc2/C1=C/C(=O)c1ccc(N2CCCCC2)cc1	N
Cc1ccc2c(n1)C(=O)C(Cl)=C(Nc1ccc(N3CCN(C)CC3)cc1)C2=O	N
CCc1ccc(-c2ccc(COc3ccc(CC4SC(=O)NC4=O)cc3)cc2)cc1 (stereo unspecified)	N
CCOC(=O)c1ccc2nc(-c3c(C)nn(-c4ccccc4)c3N3CCOCC3)[nH]c2c1	N
CCn1cc(-c2ccnc(NCCNS(=O)(=O)c3cccc4ccccc34)c2)c(-c2cccc(O)c2)n1	N
CC1(C)CC[C@]23CC[C@]4(C)[C@H](CC[C@@H]5[C@@]6(C)C/C(=C/c7cccnc7)C(=O)C(C)(C)[C@@H]6CC[C@]54C)[C@H]2[C@H]1OC3=O	N
Cc1ccc(S(=O)(=O)n2cc(C(=O)C(=O)N3CCCCC3)c3ccccc32)cc1	N
COc1cc2c(cc1OC(C)=O)C(=O)CCCC2	N
C=C(C)[C@@H]1CC[C@]2(C(=O)NCCNCCNC(=O)OC(C)(C)C)CC[C@]3(C)[C@H](CC[C@@H]4[C@@]5(C)CCC(=O)C(C)(C)[C@@H]5CC[C@]43C)[C@@H]12	N
C=C(C)[C@@H]1CC[C@]2(C(=O)NCCNCCNCCN)CC[C@]3(C)[C@H](CC[C@@H]4[C@@]5(C)CCC(=O)C(C)(C)[C@@H]5CC[C@]43C)[C@@H]12	Y

* * *

# System: IGROV1 ovarian
# method.summary: NCI-60 one-dose screen, 48 h (100 = growth as untreated, 0 = no growth, -100 = all killed)
# condition.set: 10 µM unless noted
This is part of a sample that, as a whole, favours compounds with a hit. Of some 83,000 tested, about 20% had one in any assay. Activity calls are given as the source filed them. Rule for the calls: active = growth percent below 10; inactive = the rest.
measurement.kind: growth

compound	measurement
C[n+]1c2ccccc2nc2c(N)cc(N)cc21	70.1% (inactive)
CCOC(=O)c1nn(C2CCCCO2)c2ccc(NS(=O)(=O)c3ccc(C)cc3)cc12 (stereo not given)	102% (inactive)
O=C1COCCN1c1ccc(Nc2nc(Cl)nc(N3CCOCC3)n2)cc1	103% (inactive)
COc1ccc2nc3cc(Cl)ccc3c(Nc3ccc(O)cc3)c2c1	71.3% (inactive)
CC1(C)CC[C@]2(C(=O)OC(=O)[C@]34CCC(C)(C)C[C@@H]3C3=CC[C@@H]5[C@@]6(C)CCC(=O)C(C)(C)[C@@H]6CC[C@@]5(C)[C@]3(C)CC4)CC[C@]3(C)C(=CC[C@@H]4[C@@]5(C)CCC(=O)C(C)(C)[C@@H]5CC[C@]43C)[C@H]2C1	84.4% [100 µM] (inactive)

* * *

# Test system: HOP-92 NSCLC
# method.summary: NCI-60 one-dose screen, 48 h
# condition.set: 10 µM unless noted
About 83,000 compounds went through this panel and 20% of them were active in at least one assay; those are over-represented in the sample as a whole. Activity calls are given as the source filed them. The calls were made as follows: active = growth percent below 10; inactive = the rest.
Outcomes: class 1 for active, class 0 for inactive

smiles.data	cat
N/C(=N\c1nc2ccccc2[nH]1)NC(=O)Cc1cccc2ccccc12	class 0
COc1cc(OC)c(/C=C/C(=O)c2c(N)cc(OC)cc2OC)c(OC)c1	class 0
COc1ccc(-c2cc(-c3ccc(OC)c(OC)c3)nc(SCCCCCC(=O)NO)n2)cc1	class 0
COCc1nc2ccccc2[nH]1	class 0
Cc1cnc([C@]23CC[C@@H](C)[C@H](C)[C@H]2C2=CC[C@@H]4[C@@]5(C)Cc6c([nH]c7ccccc67)C(C)(C)[C@@H]5CC[C@@]4(C)[C@]2(C)CC3)o1	class 0
CC1=CC[C@@H]2C(C)(C)[C@@H](O)CC[C@@]2(C)[C@@H]1COc1ccc2ccc(=O)oc2c1	class 0
CC(=O)Nc1ccc2nc3ccc(NC(C)=O)cc3[n+](-c3ccccc3)c2c1	class 0
CCOc1cc(/C=N\NC(=O)N/N=C/c2ccc(O)c(OCC)c2)ccc1O	class 0
CC(C)(C)c1cc(C(=O)N2CCC(C(=O)NCCN)CC2)cc(C(C)(C)C)c1	class 0
COc1cc(-c2nc(SCCC(C)C)nc(Nc3ccc(S(N)(=O)=O)cc3)c2C#N)cc(OC)c1OC	class 1
Cc1ccc(N)c(O)c1	class 0
C#C[C@]1(O)CC[C@H]2[C@@H]3CC=C4c5nc(Nc6ccc(OC)cc6OC)sc5CC[C@]4(C)[C@H]3CC[C@@]21C	class 0
Cc1ccc(S(=O)(=O)Oc2ccc([N+](=O)[O-])cc2[N+](=O)[O-])cc1	class 0
Cc1cc2c(C(C)C)c(O)c(O)c(C=NCc3ccoc3)c2c(O)c1-c1c(C)cc2c(C(C)C)c(O)c(O)c(C=NCc3ccco3)c2c1O	class 0
COC(=O)[C@]1(C)CC[C@]2(C)CC[C@]3(C)C(=CC(=O)[C@@H]4[C@@]5(C)CCC(=O)NC(C)(C)[C@@H]5CC[C@]43C)[C@@H]2C1	class 1
CCOC(=O)CCC[P+](c1ccccc1)(c1ccccc1)c1ccccc1	class 0
CCOC(=O)COc1c(C)cc(SSc2cc(C)c(OCC(=O)OCC)c(C)c2)cc1C	class 0
COc1ccc(C(=O)CSc2nnc(-c3cc(-c4ccccc4)nc4ccccc34)o2)cc1	class 0

* * *

# Test system: HOP-62 NSCLC
# method.summary: NCI-60 one-dose screen, 48 h
# condition.set: 10 µM unless noted
This is part of a sample that, as a whole, favours compounds with a hit. Of some 83,000 tested, about 20% had one in any assay. Activity calls are given as the source filed them. The calls were made as follows: active = growth percent below 10; inactive = the rest.
Outcomes: active, inactive

molecule	cat
CC1Cc2ccc(OCCN(C)C)cc2C1=O (centres undefined)	inactive
O=S(=O)(/N=c1/n(-c2ccccc2)nc2n1CCN2C1=NCCN1)c1ccc(-c2ccccc2)cc1	inactive
CC(C)C1=NOC(=O)C1=Cc1cn(-c2cccnc2)nc1-c1ccccc1	inactive
Nc1cc(N)c(N=Nc2ccc(S(=O)(=O)O)cc2)cc1N=Nc1ccc(-c2ccc(N=Nc3ccc(O)c(C(=O)O)c3)cc2)cc1	inactive
O=C(Nc1cccnc1)c1ccc2ccc3ccc(C(=O)Nc4cccnc4)nc3c2n1	active
Nc1nc(Nc2ccccc2)c2ncn(Cc3cc4c(cc3Br)OCO4)c2n1	inactive
CCn1cc(-c2ccnc(NCCNS(=O)(=O)c3cccc4ccccc34)c2)c(-c2cccc(O)c2)n1	inactive
Fc1cc2[nH]ncc2c2c3c(c(-c4cn[nH]c4)nc12)CCCC3	active
C#CCOc1ccc(C2=NN(CC3CC3)C3N=C(Cl)c4ncn(CC5CC5)c4N23)cc1OCC#C (centres undefined)	inactive
